Ok so here's the combined literature set: pKd for Receptor-interacting serine/threonine-protein kinase 1 (Homo sapiens).
pKd: −log10 of the molar value.

Task: # returns recorded pKd (system: Receptor-interacting serine/threonine-protein kinase 1 (Homo sapiens)) for Cc1cn(C)nc1Nc1[nH]nc(-c2ccc(NS(=O)(=O)C(F)F)c(O[C@@H](C)c3ccc(F)cc3)c2)c1C(N)=O
Result: < 4.52

Task: Give the reported pKd for C[C@H](Oc1cc(-c2nn(C)c3c(Cc4ccccc4)cnc(N)c23)ccc1NS(=O)(=O)C(F)F)c1ccc(F)cc1 (system: Receptor-interacting serine/threonine-protein kinase 1 (Homo sapiens)).
Result: < 5.00

Task: # returns recorded pKd (system: Receptor-interacting serine/threonine-protein kinase 1 (Homo sapiens)) for Nc1ncc(-c2cnn(C3CCOCC3)c2)c2[nH]nc(-c3ccc(NS(=O)(=O)C(F)F)c(OCc4cccc(Cl)c4)c3)c12
Result: < 5.00
